- Tested target: T1, PD-1 protein (human, UniProt Q15116 25-167, limits assumed)
- T1 construct: also called human PD-1
- T1 sequence (Q15116 25-167 limits assumed): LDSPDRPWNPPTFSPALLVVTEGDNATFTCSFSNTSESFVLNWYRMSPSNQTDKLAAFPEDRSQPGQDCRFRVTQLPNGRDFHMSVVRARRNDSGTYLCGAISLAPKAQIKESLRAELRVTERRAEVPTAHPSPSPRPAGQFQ
- Procedure details: blocking ELISA, PD-1 coated, competitor biotin PD-L1
I'd appreciate it if you could supply OD450 of PD-L1 bound, antibody at 9.75 µg/mL values for the items below.
Numeric answer plus unit only.

binder="504#SS13 (Fc fusion, not shown: a dimerising Fc or GST; small tags and cut ends, VHH-FC construct from HEK293 cells) VHH: EVQVVESGGGSVQPGGSLRLSCAASGRGFTEHAMGWYRQSPGKEREFVAGISSGGSTYYADSVKGRFTVSRDSAGNTVALQMDSLKPEDTAVYYCSYKRGRYPDGVSTLEYWGQGTQVTVSS" observed_result="3.33 OD450"
binder="504#SS9 (Fc fusion, VHH-FC construct from HEK293 cells; not shown: The (G4S)3 linker leading to it is left out with it) VHH: EVQLQESGGGLVQAGGSLRLSCAASGRSFSGYAMAWFRQAPGKEREFVAAVNWNGGSTYYADSVKGRFTISRDNAKDTVYLQMNSLKPEDTAVYYCNARPTFGAYYSDYKSGVDYWGQGTQVTVSS" observed_result="3.32 OD450"

Dear reader, for each entry below, please note its OD450 of PD-L1 bound, antibody at 9.75 µg/mL.
1. 504#SS25 (Fc fusion, not shown: a dimerising Fc or GST; small tags and cut ends, VHH-FC construct from HEK293 cells) VHH: QVQLVETGGGLVQAGGSLRLSCAASGDTIFISSMAWYRQAPGKERELVASIDSDDIIYYAATVKGRFTISRDNDKPTMYLQMDTLQPEDTAVYYCRVESQDYYFDYDRDSWGQGTQVTVSS
2. 504#SS30 (Fc fusion, not shown: a dimerising Fc or GST; small tags and cut ends, VHH-FC construct from HEK293 cells) VHH: EVQLVETGGGLVQAGGSLRLACEVSGRTFSSYAMGWFRQAPGREREFVASIRVSGGITDYADSVKGRFTISRDNAKDTVYLQMINLKPEDTAVYYCNADISRYRFSRGDYWGKGTLVTVSS
3. 504#SS23 (Fc fusion, not shown: a dimerising Fc or GST; small tags and cut ends, VHH-FC construct from HEK293 cells) VHH: QVQLVESGGGLVQPGGSLRLSCAASGFTFSSYVMSWVRQAPGKGLEWVSAINSGGSSSSYPESVKDRFTVSRDNAKNTLYLQMNSLKPEDTAVYFCAAKNVPGFYYSDYANHEYDYWGQGTQVTVSS
4. 504#SS1 (Fc fusion, VHH-FC construct from HEK293 cells; not shown: The (G4S)3 linker leading to it is left out with it) VHH: QVQLVESGGGLVQAGGSLRLSCAASGLTFSDFAMGWFRQAPGKEREFVAAISWSGGQTYNVESAKGRFTISRDNAKNTVYLQMNKLKPDDTAVYYCAASTMVVTTVAADYKYWGQGTQVTVSS

Response:
3.17 OD450
3.28 OD450
3.28 OD450
3.17 OD450
